Consider the following compounds and their measured melting point readings.

Recorded melting point (compound CCCNC(=O)C1c2ccccc2-c2ccccc21 ): 197 to 199 °C

Recorded melting point (compound CCCCCCCCCCCC(CC(=O)NC(CCCNC(=O)OCc1ccccc1)COC1CCCCO1)OCc1ccccc1 (stereo not given) ): 84 to 86 °C

Recorded melting point (compound CCOC(=O)c1c(N)sc(N)c1C(=O)OCC ): 155 to 158 °C

Recorded melting point (compound CN1Cc2c(CO)ncn2-c2ccccc2C1=O ): 219 to 221 °C

Recorded melting point (compound CCCCn1cc(-c2nnnn2C)c(=O)c2ccccc21 ): 100 to 105 °C

Recorded melting point (compound O=[N+]([O-])c1ccc(Cl)cc1NC1CCCC1 ): 75 °C

Recorded melting point (compound CN(C(=O)c1ccc2nonc2c1)C1CCN(C=O)CC1 ): 163 to 165 °C

Recorded melting point (compound CCCCc1c(CO)ccc2c(OC)cccc12 ): 100 to 102 °C

Recorded melting point (compound Cc1c(CC(=O)O)c2ccccc2n1-c1cc(Cl)nc(Cl)n1 ): 205 to 207 °C

Recorded melting point (compound Cc1cn(-c2ccc(NC(=O)c3ccc(C)c(C#Cc4ccc(NC(C)C)nn4)c3)cc2C(F)(F)F)cn1 ): 141 to 143 °C

This collection of values is drawn from a melting point compilation (Tetko et al.; mined from patent text by program, amines drawn as free bases though some values may be those of a salt).
